Taken from patent US7968585B2.

molecular target: 11β-HSD1 (Homo sapiens); construct: assay medium containing 12 ng/mL hTNFα to induce expression of 11β-HSD1; endogenous in cells; experiment: Human Aortic Smooth Muscle Cell Assay (cortisone to cortisol conversion); conditions: primary human aortic smooth muscle cells (AoSMC), hTNFα induced, cortisol immunoassay
Sequence (P28845 whole entry): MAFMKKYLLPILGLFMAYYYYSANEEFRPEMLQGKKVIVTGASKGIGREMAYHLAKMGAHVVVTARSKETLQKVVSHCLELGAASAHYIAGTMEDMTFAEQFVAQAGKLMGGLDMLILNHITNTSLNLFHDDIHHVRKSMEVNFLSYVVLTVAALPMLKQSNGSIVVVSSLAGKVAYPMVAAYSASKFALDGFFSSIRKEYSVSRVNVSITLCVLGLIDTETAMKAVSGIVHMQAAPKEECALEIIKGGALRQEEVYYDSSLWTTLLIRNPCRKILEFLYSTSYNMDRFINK
recorded-metric: IC50 (nM)

Qu. Consider the compound O=C1N(Cc2c(Cl)cc(-c3ccc(F)cc3)cc2Cl)CCC12CCc1n[nH]cc1C2 (stereo not drawn) [Example 14] . State its measured IC50.
Ans. 21.5

[A] O=C(c1ccc(-c2cc(Cl)c(CN3CCC4(CCCCC4)C3=O)c(Cl)c2)cc1)N1CCN(CCF)CC1 [Example 6]
[B] O=C(c1ccc(-c2cc(Cl)c(CN3CCC4(CCCCC4)C3=O)c(Cl)c2)cc1)N1CCC(C(F)(F)F)CC1 [Example 5]
Qu. Looking at A and B , which one comes out lower in IC50 terms? Write down the label of the entry you select.
Ans. A
